# ASSAY_SYSTEM: UniProt:Q16853
# Sequence (Q16853 whole entry): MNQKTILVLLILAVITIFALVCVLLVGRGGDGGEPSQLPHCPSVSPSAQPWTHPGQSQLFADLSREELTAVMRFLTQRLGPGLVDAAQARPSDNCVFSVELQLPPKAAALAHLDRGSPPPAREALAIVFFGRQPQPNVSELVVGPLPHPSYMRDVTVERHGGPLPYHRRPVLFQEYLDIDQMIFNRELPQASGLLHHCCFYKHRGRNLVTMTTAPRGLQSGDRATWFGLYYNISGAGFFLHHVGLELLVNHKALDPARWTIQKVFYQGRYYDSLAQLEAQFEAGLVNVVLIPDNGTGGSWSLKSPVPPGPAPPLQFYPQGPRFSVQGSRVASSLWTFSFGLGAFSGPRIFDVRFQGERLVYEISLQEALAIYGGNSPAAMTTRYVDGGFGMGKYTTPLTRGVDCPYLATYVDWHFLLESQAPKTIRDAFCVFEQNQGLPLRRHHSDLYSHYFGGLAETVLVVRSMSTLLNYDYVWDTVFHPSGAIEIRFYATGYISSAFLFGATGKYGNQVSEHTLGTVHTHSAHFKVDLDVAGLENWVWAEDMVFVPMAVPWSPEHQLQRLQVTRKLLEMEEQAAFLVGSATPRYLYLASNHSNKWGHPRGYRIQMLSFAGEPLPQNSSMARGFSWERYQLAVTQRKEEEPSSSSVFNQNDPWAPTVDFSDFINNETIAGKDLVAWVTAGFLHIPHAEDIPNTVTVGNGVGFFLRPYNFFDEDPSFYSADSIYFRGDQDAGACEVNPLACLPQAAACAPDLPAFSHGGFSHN
# MEASUREMENT_PROTOCOL: Inhibition of recombinant human SSAO using benzylamine as substrate preincubated with enzyme for 30 mins followed by substrate addition and measured every 2.5 mins for 30 mins by Amplex-Red oxidation assay
# TEST_PARAMETERS: read-out: pIC50 (converted)
MEASURE_NAME: IC50

>  <TEST_SMILES>
C[C@H](NS(=O)(=O)c1ccc(OC/C(F)=C\CN)cc1)c1ccccc1

>  <ASSAY_SYSTEM>
UniProt:Q16853

>  <MEASURE_NAME>
IC50

>  <RESULT>
0.0501 µM

$$$$
>  <TEST_SMILES>
Cc1c(-c2cccc(S(=O)(=O)N(C)C)c2)c2ccccc2n1C/C(F)=C/CN.Cl

>  <ASSAY_SYSTEM>
UniProt:Q16853

>  <MEASURE_NAME>
IC50

>  <RESULT>
7.94 µM

$$$$
>  <TEST_SMILES>
C[C@H](NS(=O)(=O)c1ccc(OC/C(F)=C/CN)cc1)c1ccccc1

>  <ASSAY_SYSTEM>
UniProt:Q16853

>  <MEASURE_NAME>
IC50

>  <RESULT>
> 3.16 µM

$$$$
>  <TEST_SMILES>
CN(C)S(=O)(=O)c1ccc(OCc2cn(C/C(F)=C/CN)nn2)c(Cl)c1.Cl

>  <ASSAY_SYSTEM>
UniProt:Q16853

>  <MEASURE_NAME>
IC50

>  <RESULT>
> 31.6 µM

$$$$
>  <TEST_SMILES>
CN(C)S(=O)(=O)c1ccc(OCc2cn(C/C(F)=C/CN)nn2)cc1.Cl

>  <ASSAY_SYSTEM>
UniProt:Q16853

>  <MEASURE_NAME>
IC50

>  <RESULT>
> 31.6 µM

$$$$
